For each entry below, report its growth value.
test system: ACHN renal; test: NCI-60 one-dose screen, 48 h (100 = growth as untreated, 0 = no growth, -100 = all killed); conditions: 10 µM
About 83,000 compounds went through this panel and 20% of them were active in at least one assay; those are over-represented in the sample as a whole.
Answers are plain numbers, in %.

Sample records with growth:
compound	growth, %
Oc1ccccc1-c1nnco1	83
Cc1cc(C)c(CC(=O)O)c(C)c1	102

Record growth for all entries; do not skip any.
1. Cc1ccc(/C(C#N)=C/c2ccc3c(c2)OCO3)cc1
2. CO[C@H]1C[C@@H]2CC[C@@H](C)[C@@](O)(O2)C(=O)C(=O)N2CCCC[C@H]2C(=O)O[C@H]([C@H](C)C[C@@H]2CC[C@@H](O)[C@H](OC)C2)CC(=O)[C@H](C)C=C(C)[C@@H](O)[C@@H](OC)C(=O)[C@H](C)C[C@H](C)/C=C/C=C/C=C1C
3. Cc1ccncc1C(N)=O
4. O=C(Cc1nc2ccc([N+](=O)[O-])cc2nc1CC(=O)c1cccnc1)c1cccnc1
5. CN(C)c1ccc(C(c2ccc(O)cc2)c2ccc(N(C)C)cc2)cc1

Result:
95.3
59.3
95.3
54.1
103

----------
test system: SK-MEL-2 melanoma; experiment: NCI-60 one-dose screen, 48 h (100 = growth as untreated, 0 = no growth, -100 = all killed); settings: 10 µM
The panel holds about 83,000 compounds, 20% with a hit somewhere; the sample as a whole holds those more often.
endpoint_name: growth (%)
Give bare numbers, in %.

Sample answers from the record:
compound	growth, %
Oc1ccc(N=Nc2ccc(Br)cc2)c(O)c1	-5.42
Cc1cccc([N+](=O)[O-])c1Cl	109
O=C(O)COCC(=O)O	107
CCCCC1C(=O)N(c2ccccc2)N(c2ccccc2)C1=O	98.7
COc1cccc(Sc2ccc([N+](=O)[O-])c3no[n+]([O-])c23)c1	86.2
CCN=c1cc2sc3cc(NCC)c(C)cc3nc-2cc1C	26.5
CCOC(=O)Nc1nn[nH]n1	109
N#CSc1cc(S(N)(=O)=O)ccc1N	104

Hello, I would appreciate it if you could give growth for each entry below.
1. CCOC(=O)C1=C(Nc2ccc(Br)cc2)C(=O)N(CC)C1
2. Cn1cnc2nc(Cl)nc(Cl)c21
3. COc1cccc(/C=N/NC(=S)NC2CC3CCC2C3)c1O (stereo not drawn)
4. C=CC[N+](C)(C)C
5. CCN(CC)C(=O)/C=C(/C)c1ccccc1

Result:
[124, -23.4, 69, 111, 113]

----------
test system: MALME-3M melanoma; assay: NCI-60 one-dose screen, 48 h; conditions: 10 µM
About 83,000 compounds went through this panel and 20% of them were active in at least one assay; those are over-represented in the sample as a whole. Calls of active or inactive are those of the source. How the source made its calls: active means growth percent below 10; inactive means the rest.
Reply using exactly one outcome from active, inactive

Please review the entries below; each comes with its answer.
> print(dat)
                                   compound     group
1                       c1ccc(Cc2ccccc2)cc1  inactive
2     Cc1ccc(C(=O)NC2c3ccccc3Oc3ccccc32)cc1  inactive
3             COc1cc2nn(-c3ccccc3N)nc2cc1OC  inactive
4  COc1cc(C(=O)N/N=C/c2cccc([N+](=O)[O-])c2)cc(OC)c1OC  inactive
5                 CN(C)c1ccc(S(=O)(=O)O)cc1  inactive

Task: Could you check what this test reported for c1ccc2c(c1)Sc1ccccc1S2 ?
Result: inactive

Task: Which outcome did this test record for the compound CCC/C=C(/C(C)=O)C(=O)OCC ?
Result: inactive

Task: Would you mind telling me which call this test gave COc1cc2c(cc1OC)[C@H](C(=O)O)[C@@H](c1ccc(OC(C)C)c(OC)c1)N(C)C2=O ?
Result: inactive

Task: For this compound, state the assay outcome: CCC(C)(C)C1CCC(O)CC1 (stereo not drawn)
Result: inactive

Task: Short answer needed: outcome of this test for CCO/C=C1\SC(=S)N(c2cccc(C)c2)C1=O ?
Result: inactive

Task: Which result was noted for this compound in the test: Cc1ccc(/C(C#N)=C/c2ccc3c(c2)OCO3)cc1
Result: inactive

Task: Would you mind telling me which call this test gave COc1cc([C@@H]2c3cc4c(cc3[C@H](O)[C@H]3COC(=O)[C@H]23)OCO4)cc(OC)c1OC ?
Result: inactive

Task: What outcome does the record of this test show for CCCCCCCCCCC(C)Br (stereo not drawn) ?
Result: inactive
